Experiment: BSK_4H_Eotaxin3: BioMAP Diversity Plus: 4H Assay for Eotaxin 3 Biomarker Activity (AID 2283000)
Settings: primary human endothelial cells (HUVEC); actives raise or lower the signal
The source made the active and inactive calls. Rule for the calls: active = hit-call score of the fitted dose curve at least 0.9, where 1 is the maximum; inactive = score below 0.9.
Choose the fitting class; nothing outside active, inactive is accepted.

COMPOUND | DISCRETE LABEL
C/C=C\C/C=C/CCCCCCCCOC(C)=O | active
C#CC1(O)CC[C@H]2[C@@H]3CCC4=CCCC[C@@H]4[C@H]3CC[C@@]21C (some centres not stated) | active
CC(C)C(=O)C(C)C | inactive
CC1OC1C1CCC2(C)OC2C1 (configuration not stated) | inactive
C=C[Si](OC(C)=O)(OC(C)=O)OC(C)=O | inactive

query: In this assay, the call recorded for c1ccc2c(c1)ccc1ncccc12 was what?
result: active

query: Could you do the same for c1ccc(-c2ccccn2)nc1 , please?
result: active

query: Continue with O=C1CCCN1CCO
result: inactive

query: Entry CCO[Si](C)(OCC)OCC please
result: inactive

###

Experiment: ATG_Oct_MLP_CIS: Attagene CIS-FACTORIAL HepG2 Assay for human Octamer-Binding Transcription Factor (Oct) (AID 2282993)
Conditions: HepG2 Attagene cis-factorial Oct reporter, mRNA; actives raise or lower the signal
Active and inactive are the calls of the source. Rule for the calls: active = hit-call score of the fitted dose curve at least 0.9, where 1 is the maximum; inactive = score below 0.9.
Pick from active, inactive when you respond.

COMPOUND | DISCRETE LABEL
CC=CC(=O)N(CC)c1ccccc1C | inactive
O=C1c2ccccc2C(=O)C1c1nc2ccccc2c(Br)c1O | inactive
Cc1c(C)c([N+](=O)[O-])c(C(C)(C)C)c([N+](=O)[O-])c1C | inactive

query: What classification did CCOC(F)(F)C(F)(F)C(F)(F)C(F)(F)F end up with in this test?
result: inactive

query: Another compound: Cc1ccc(C2OC[C@@H]3OC(c4ccc(C)cc4)O[C@H]([C@H](O)CO)[C@@H]3O2)cc1 (stereo partly drawn)
result: inactive

query: Same question for CCCCCC/C=C\CCCCCCCC(=O)O please.
result: inactive

query: Same read-out for [Cl][Bi]([Cl])([c]1ccccc1)([c]1ccccc1)[c]1ccccc1 ?
result: inactive

query: Request: CC(=O)OCC(=O)[C@@]12N=C(C)O[C@@H]1C[C@H]1[C@@H]3CCC4=CC(=O)C=C[C@]4(C)[C@H]3[C@@H](O)C[C@@]12C
result: inactive

###

Test system: DIO3 (gene 1735)
Assay: CCTE_GLTED_hDIO3: CCTE's human Deiodinase 3 (DIO3) Inhibition Assay, Great Lakes Toxicology and Ecology Division (GLTED) Lab (AID 2284055);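 note: potency is for inhibition seen as loss of released iodide signal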
Procedure: CCTE_GLTED_hDIO3 is a cell-free, single-readout assay designed to test the inhibitory activity of chemicals toward human iodothyronine Deiodinase type 3 (DIO3) enzyme. […] Free iodide is measured in a second step using the Sandell-Kolthoff method.CCTE_GLTED_hDIO3 is the assay component measured from the CCTE_GLTED_hDIO3 assay. […] This assay endpoint, CCTE_GLTED_hDIO3, was analyzed in the positive analysis fitting direction relative to DMSO as the negative control and baseline of activity. […]
Calls of active or inactive are those of the source. The calls were made as follows: active = hit-call score of the fitted dose curve at least 0.9, where 1 is the maximum; inconclusive = response in the unintended direction; inactive = score below 0.9.
ATTRIBUTE MEASURED: AC50

Past entries and their recorded results:
COMPOUND STRUCTURE STRING | AC50
CCCCCCCC[N+](C)(CCCCCCCC)CCCCCCCC | 3.85 µM (active)
CCCCCCCCCCCCCOP(=O)(O)O | 12 µM (active)
CCCCCCCC/C=C\CCCCCCCC(=O)OCCO | 14 µM (active)
CCCCCCCC/C=C\CCCCCCCC(=O)O | 29.8 µM (active)
Cc1ccc(N/N=c2\c(=O)cc/c(=N/Nc3ccc(S(=O)(=O)O)cc3)c2=O)c(C)c1 | 114 µM (active)

Consider the additional molecule presented here.
query: What value of AC50 has been recorded for this entry: O=C(C=Cc1ccccc1)OCc1ccccc1
result: 5.5 µM (active)
